Recorded values, source patent US8501794B2.

Biological target: human CB2 receptors (Homo sapiens, UniProt P34972)
Construct: expressed in transfected cells; host or cells: HEK293
Sequence (P34972 whole entry): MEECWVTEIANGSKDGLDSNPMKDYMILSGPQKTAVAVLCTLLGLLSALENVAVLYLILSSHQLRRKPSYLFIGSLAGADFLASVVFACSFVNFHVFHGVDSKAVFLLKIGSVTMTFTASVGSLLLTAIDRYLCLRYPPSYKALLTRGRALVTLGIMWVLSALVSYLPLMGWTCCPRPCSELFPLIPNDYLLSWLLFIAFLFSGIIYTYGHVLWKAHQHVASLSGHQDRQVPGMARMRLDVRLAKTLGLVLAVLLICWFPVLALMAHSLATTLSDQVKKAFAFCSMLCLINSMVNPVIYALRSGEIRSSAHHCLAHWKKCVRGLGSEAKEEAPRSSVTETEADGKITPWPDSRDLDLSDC
Assay: human CB2 radioligand binding assay ([3H]CP-55,940 competition)
Values of Ki strictly less than 0.04 µM map to T, and values of at least 0.04 µM map to F.

Would you kindly verify if Ki of `CCCCc1cn(C(C)(C)C)s/c1=N\C(=O)[C@@H]1CC[C@](C)(C2=NCCO2)C1(C)C` is strictly less than 0.04 µM?
T

Would you kindly verify if Ki of COc1ccc(Cl)cc1C(=O)/N=c1\sn(C(C)(C)C)cc1C(O)C1CCC1 (centres unmarked) is strictly less than 0.04 µM?
T

Would you kindly verify if Ki of `CCCCc1cn(C(C)(C)C)s/c1=N\C(=O)[C@]1(C)CC[C@H](C(=O)N(C)OC)C1(C)C` is strictly less than 0.04 µM?
T

Would you kindly verify if Ki of `COc1ccc(Cl)cc1C(=O)/N=c1\sn(C(C)(C)C)cc1Cc1cccs1` is strictly less than 0.04 µM?
T

Would you kindly verify if Ki of `COc1ccc(C#N)cc1C(=O)/N=c1\sn(C(C)(C)C)cc1Cc1ccco1` is strictly less than 0.04 µM?
F

Would you kindly verify if Ki of `COc1ccc(C(F)(F)F)cc1C(=O)/N=c1\sn(C(C)(C)C)cc1Cc1ccco1` is strictly less than 0.04 µM?
T

Would you kindly verify if Ki of `CCCCc1cn(C(C)(C)C)s/c1=N\C(=O)C1C(C)(C)C1(C)C` is strictly less than 0.04 µM?
T

Would you kindly verify if Ki of `CCCCc1cn(C(C)(C)C)s/c1=N\C(=O)c1cc(C#N)ccc1OC` is strictly less than 0.04 µM?
T

Would you kindly verify if Ki of `CCCCc1cn(C(C)(C)C)s/c1=N\S(=O)(=O)C1CCCCC1` is strictly less than 0.04 µM?
F

----------
Catalogue of compounds with associated pKi
Biological target: rat CB2 (Rattus norvegicus)
Sequence (Q9QZN9 1-360): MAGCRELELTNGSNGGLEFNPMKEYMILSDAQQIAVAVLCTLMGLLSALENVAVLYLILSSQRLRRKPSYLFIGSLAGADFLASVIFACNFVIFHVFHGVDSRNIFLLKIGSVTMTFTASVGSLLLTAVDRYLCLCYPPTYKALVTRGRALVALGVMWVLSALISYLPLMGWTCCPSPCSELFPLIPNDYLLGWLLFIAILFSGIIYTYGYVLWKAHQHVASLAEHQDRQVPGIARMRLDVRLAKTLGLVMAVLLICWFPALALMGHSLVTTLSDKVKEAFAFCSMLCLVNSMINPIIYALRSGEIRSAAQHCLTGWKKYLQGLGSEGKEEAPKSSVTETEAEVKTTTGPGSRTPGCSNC
Experiment: rat CB2 radioligand binding assay ([3H]CP-55,940 competition)
Set-up: expressed in transfected cells; host or cells: HEK293
Expect pKi as a plain number equal to -log10 of the molar concentration.

// known answers, use as guide
# COMPOUND, pKi
records = [
    ("CCCCc1cn(C(C)(C)C)s/c1=N\\C(=O)c1cc(OC(F)(F)F)ccc1OC [Example 63]", 8.47),
    ("COc1ccc(Cl)cc1C(=O)/N=c1\\sn(C(C)(C)C)c2c1CC1(CC2)OCCO1 [Example 10]", 7.38),
    ("CCCCc1cn(C(C)(C)C)s/c1=N\\C(=O)[C@]1(C)CC[C@H](C2=NCCCO2)C1(C)C [Example 243]", 7.85),
    ("CCCCc1cn(C(C)(C)C)s/c1=N\\C(=O)[C@@]1(C)CC[C@@H](C(=O)NCC(F)(F)F)C1(C)C [Example 240]", 6.81),
    ("COc1ccc(Cl)cc1C(=O)/N=c1\\sn(C(C)(C)C)cc1CC1CCCO1 (centres unmarked) [Example 67]", 8.52),
    ("COc1ccc(Cl)cc1C(=O)/N=c1\\sn(C(C)(C)C)cc1CCC(C)=O [Example 84]", 8.57),
]

Recorded pKi for COc1ccc(Cl)cc1C(=O)/N=c1\sn(C(C)(C)C)cc1COCC(F)(F)F [Example 85] , please?
8.46

Recorded pKi for COc1ccc(C(F)(F)F)cc1C(=O)/N=c1\sn(C(C)(C)C)cc1CCCC#N [Example 134] , please?
8.96

Recorded pKi for C#CCNC(=O)[C@@H]1CC[C@](C)(C(=O)/N=c2\sn(C(C)(C)C)cc2CCCC)C1(C)C [Example 239] , please?
7.15

Recorded pKi for CCCCc1cn(C(C)(C)C)s/c1=N\C(=O)c1cc(/C(C)=N\O)ccc1OC [Example 68] , please?
8.08

Recorded pKi for COc1ccc(Cl)cc1C(=O)/N=c1\sn(C(C)(C)C)cc1CCCC(C)=O [Example 75] , please?
8.40

Recorded pKi for CCCCCc1cn(C(C)(C)C)s/c1=N\C(=O)c1cc(Cl)ccc1OC [Example 147] , please?
9.82

Recorded pKi for CCCCc1cn(C(C)(C)C)s/c1=N\C(=O)OC12CC3CC(CC(C3)C1)C2 [Example 189] , please?
8.28

Recorded pKi for CCCCc1cn(C(C)(C)C)s/c1=N\C(=O)[C@]1(C)CC[C@H](NC(N)=O)C1(C)C [Example 245] , please?
7.46

Recorded pKi for CCCCc1cn(C(C)(C)C)s/c1=N\C(=O)[C@]1(C)CC[C@H](C(=O)NC)C1(C)C [Example 184] , please?
8.49

Recorded pKi for CCCCc1cn(C(C)(C)C)s/c1=N\C(=O)[C@H]1CC[C@@](C)(C(=O)O)C1(C)C [Example 181] , please?
7.82

Recorded pKi for COc1ccc(C(F)(F)F)cc1C(=O)/N=c1\sn(C(C)(C)C)cc1CCCC(C)=O [Example 76] , please?
8.66

----------
Catalogue of compounds with associated Ki
Biological target: human CB2 receptors (Homo sapiens)
Construct: expressed in transfected cells; host or cells: HEK293
Experiment: human CB2 radioligand binding assay ([3H]CP-55,940 competition)
Answer with a number only, understood to be in nM.

// known answers, use as guide
# INPUT_SMILES, MEASUREMENT_TYPE, MEASURED_VALUE
records = [
    ("CCCCc1cn(C(C)(C)C)s/c1=N\\C(=O)[C@]1(C)CC[C@H](NC(=O)N(C)c2ccccc2)C1(C)C", "Ki", 11),
    ("CCCCc1cn(C(C)(C)C)s/c1=N\\C(=O)c1cc(OC)ccc1OC", "Ki", 45),
    ("CCCCc1cn(C(C)(C)C)s/c1=N\\C(=O)[C@]1(C)CC[C@H](C(=O)NCC)C1(C)C", "Ki", 180),
    ("CCCCc1cn(C(C)(C)C)s/c1=N\\C(=O)c1cc(C(F)(F)F)ccc1OCC(C)(C)O", "Ki", 6),
    ("CCCCc1cn(C(C)(C)C)s/c1=N\\C(=O)[C@@]1(C)CC[C@@H](C(=O)N2CCC2)C1(C)C", "Ki", 170),
    ("CCCCc1cn(C(C)(C)C)s/c1=N\\C(=O)[C@@]1(C)CC[C@@H](C(=O)NCC(F)(F)F)C1(C)C", "Ki", 100),
    ("CCCCc1cn(C(C)(C)C)s/c1=N\\C(=O)c1cc(C(F)(F)F)ccc1ONC(C)(C)C", "Ki", 19),
    ("CCCCCc1cn(C(C)(C)C)s/c1=N\\C(=O)c1cc(Cl)ccc1OC", "Ki", 1.6),
    ("CON=CCCc1cn(C(C)(C)C)s/c1=N\\C(=O)c1cc(Cl)ccc1OC", "Ki", 170),
    ("CCCCc1cn(C(C)(C)C)s/c1=N\\C(=O)c1cc(OC(F)(F)F)ccc1OC", "Ki", 33),
]

Recorded Ki for `CCCCc1cn(C(C)(C)C)s/c1=N\C(=O)c1cc(F)ccc1OC` , please?
24

Recorded Ki for `COc1ccc(Cl)cc1C(=O)/N=c1\sn(C(C)(C)C)cc1Cc1ccccc1` , please?
9.1

Recorded Ki for `COc1ccc(Cl)cc1C(=O)/N=c1\sn(C(C)(C)C)cc1COC(C)C` , please?
19

Recorded Ki for `CCCCc1cn(C(C)(C)C)s/c1=N\C(=O)[C@@]1(C)CC[C@@H](NC(=O)c2ccccc2)C1(C)C` , please?
25

Recorded Ki for `CCCCc1cn(C(C)(C)C)s/c1=N\C(=O)c1cc(C=NO)ccc1OC` , please?
54

Recorded Ki for `CCCCc1cn(C(C)(C)C)s/c1=N\C(=O)c1cc(Cl)ccc1OC` , please?
16

Recorded Ki for `COc1ccc(Cl)cc1C(=O)/N=c1\sn(C(C)(C)C)cc1Cc1ccco1` , please?
19

----------
Molecular target: UniProt:Q9QZN9
Sequence (Q9QZN9 1-360): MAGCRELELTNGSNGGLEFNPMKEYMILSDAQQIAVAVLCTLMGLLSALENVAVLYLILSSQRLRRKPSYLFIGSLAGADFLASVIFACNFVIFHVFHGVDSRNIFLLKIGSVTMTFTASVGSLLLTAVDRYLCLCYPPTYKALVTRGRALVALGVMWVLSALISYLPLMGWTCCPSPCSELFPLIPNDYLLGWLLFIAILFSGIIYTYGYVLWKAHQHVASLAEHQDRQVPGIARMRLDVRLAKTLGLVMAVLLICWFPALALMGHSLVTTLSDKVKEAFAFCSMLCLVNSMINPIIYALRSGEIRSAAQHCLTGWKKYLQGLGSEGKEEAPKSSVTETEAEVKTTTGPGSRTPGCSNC
Experiment: rat CB2 cyclase functional assay (HitHunter cAMP, HEK cells)
Conditions: forskolin 18 μM
pEC50: −log10 of the molar value.
Hi all, reminder that labels come from pEC50, split as bucket 1 (below 9), bucket 2 (9 to below 10), bucket 3 (10 or more)

Reference set (3 entries):
# MOLECULE, ASSIGNED_CATEGORY
measured = [
    ("CCCCc1cn(C(C)(C)C)s/c1=N\\C(=O)c1cc(OC)ccc1OC", "bucket 2"),
    ("CCCCc1cn(C(C)(C)C)s/c1=N\\C(=O)c1cc(F)ccc1OC", "bucket 2"),
    ("CCCCc1cn(C(C)(C)C)s/c1=N\\S(=O)(=O)c1cccc2ccccc12", "bucket 1"),
]

Class for `CCCCc1cn(C(C)(C)C)s/c1=N\C(=O)[C@@H]1CC[C@](C)(C(=O)NC)C1(C)C` ?
bucket 2

Class for `CCCCc1cn(C(C)(C)C)s/c1=N\C(=O)[C@H]1CC[C@@](C)(C(=O)OC)C1(C)C` ?
bucket 3

Class for CCCCc1cn(C(C)(C)C)s/c1=N\C(=O)NC1CCC(C)CC1 (stereo not drawn) ?
bucket 2
